# Target of assay: Sphingosine kinase 1 (Homo sapiens)
# Sequence (Q9NYA1 whole entry): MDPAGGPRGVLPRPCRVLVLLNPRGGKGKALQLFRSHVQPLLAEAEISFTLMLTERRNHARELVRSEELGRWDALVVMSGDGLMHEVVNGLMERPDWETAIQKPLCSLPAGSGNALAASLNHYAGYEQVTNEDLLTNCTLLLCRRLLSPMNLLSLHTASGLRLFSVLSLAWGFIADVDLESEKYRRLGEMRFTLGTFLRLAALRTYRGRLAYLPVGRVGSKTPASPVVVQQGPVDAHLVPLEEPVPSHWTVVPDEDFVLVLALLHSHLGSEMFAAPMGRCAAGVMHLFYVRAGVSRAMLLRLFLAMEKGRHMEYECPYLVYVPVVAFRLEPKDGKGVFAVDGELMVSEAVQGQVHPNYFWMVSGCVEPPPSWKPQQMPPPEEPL
# Method notes: Inhibition of recombinant SK1 (unknown origin) using sphingosine and [gamma-32P]ATP as substrate after 30 mins
# IC50 listing for each entry below
Metric name: IC50 (µM)

| Molecule | Unit of measurement | Value reported |
| --- | --- | --- |
| CCCCCCCCCCCCCCOCC(O)[C@H](C)N(C)C (single isomer, unassigned) | µM | 27.8 |
| CCCCCCCCCCCCCCC[C@@H](O)[C@H](CO)NC(=S)Nc1cccc(C(F)(F)F)c1 | µM | 69 |
| CCCCCCCCCCCCCCC[C@@H](O)[C@H](C)N | µM | 7.1 |

---

# Target of assay: Sphingosine kinase 2 (Homo sapiens)
# Sequence (Q9NRA0 whole entry): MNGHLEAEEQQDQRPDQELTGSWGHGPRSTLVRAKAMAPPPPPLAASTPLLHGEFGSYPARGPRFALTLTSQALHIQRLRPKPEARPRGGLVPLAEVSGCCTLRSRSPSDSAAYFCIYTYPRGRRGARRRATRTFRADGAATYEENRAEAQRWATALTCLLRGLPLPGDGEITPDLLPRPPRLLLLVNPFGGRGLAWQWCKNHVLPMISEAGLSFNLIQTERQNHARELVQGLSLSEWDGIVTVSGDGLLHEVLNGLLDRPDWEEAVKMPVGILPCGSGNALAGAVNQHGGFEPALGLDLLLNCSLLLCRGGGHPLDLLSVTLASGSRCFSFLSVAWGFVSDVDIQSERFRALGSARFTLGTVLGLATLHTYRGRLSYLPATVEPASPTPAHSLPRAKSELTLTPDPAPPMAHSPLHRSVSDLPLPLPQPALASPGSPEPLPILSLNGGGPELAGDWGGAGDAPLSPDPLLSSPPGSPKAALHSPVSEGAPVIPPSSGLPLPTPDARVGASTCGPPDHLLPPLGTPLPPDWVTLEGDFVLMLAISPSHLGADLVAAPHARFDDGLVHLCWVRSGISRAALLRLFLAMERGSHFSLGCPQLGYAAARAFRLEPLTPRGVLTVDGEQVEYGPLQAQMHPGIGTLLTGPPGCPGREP
pIC50: −log10 of the molar value.

| Compound | pIC50 |
| --- | --- |
| CCCCCCCCCCCCCCOCC(O)[C@H](C)N(C)C (single isomer, unassigned) | 3.52 |
| CCCCCCCCCCCCCCC[C@@H](O)[C@H](C)N | 3.12 |
| CCCCCCCCCCCCCCC[C@@H](O)[C@H](CO)NC(=S)Nc1cccc(C(F)(F)F)c1 | 4.66 |

---

# Target of assay: Sphingosine kinase 1 (Homo sapiens)
# Method notes: Activity at recombinant SK1 (unknown origin) using ATP at 250 uM relative to control
Active and inactive are the calls of the source. The rule behind the calls is not given here.

| Molecule smiles | Activity |
| --- | --- |
| CCCCCCCCCCCCCC[C@H]1OC[C@H](NC(=S)Nc2c(F)c(F)c(F)c(F)c2F)[C@@H]1O | Active |
| CCCCCCCCCCCCC/C=C\[C@@H](O)[C@@H](N)CO | Active |
| CCCCCCCCCCCCCCC[C@@H](O)[C@H](C)[N+](C)(C)C | Active |
| CCCCCCCCCCCCCCC[C@@H](O)[C@H](CO)NC(=S)Nc1cccc(F)c1 | Active |

---

# Target of assay: Sphingosine kinase 2 (Homo sapiens)
# Method notes: Inhibition of purified SK2 (unknown origin) using sphingosine and [gamma-32P]ATP as substrate at 50 uM after 30 mins relative to control
Calls of active or inactive are those of the source. No cut-off for these calls is given here.

| Molecule smiles | inhibition |
| --- | --- |
| CCCCCCCCCCCCCCC[C@@H](O)[C@H](CO)NC(=S)Nc1cccc(F)c1 | Active |
| CCCCCCCCCCCCCCC[C@@H](O)[C@H](CO)NC(=S)Nc1cccc(C(F)(F)F)c1 | 80% |
| CCCCCCCCCCCCC/C=C/[C@@H](O)[C@H](CO)NC(=S)Nc1ccc(C(F)(F)F)cc1 | Active |
| CCCCCCCCCCCCC/C=C/[C@@H](O)[C@H](CO)NC(=S)Nc1ccc(F)cc1 | 79.2% |
| CCCCCCCCCCCCCC[C@@H](O)[C@@H](O)[C@H](CO)NC(=O)Nc1ccc(C(F)(F)F)cc1 | 53.9% |
| CCCCCCCCCCCCCC[C@@H](O)[C@@H](O)[C@H](CO)NC(=S)Nc1ccc(F)cc1 | 64.5% |
